# Tested on: Escherichia coli DH5[alpha]
# Measurement protocol: Agonist activity at Escherichia coli DH5alpha (pJN105L + pSC11) LasR assessed as activation of quorum sensing at 10 uM relative to N-(3-oxo)-dodecanoyl HL
# Assay type: functional
Quantity kind: Activity (%)
Quick reminder: number only, in %, skip the unit.

Would you please look over these solved cases?
CCCCCCCCCC(=O)CC(=O)NCc1ccc(F)cc1 : 0
CCCCCCCCCC(=O)CC(=O)NCc1ccc(OC)c(OC)c1 : 1
COc1ccc(CC(=O)NC2CCCC2)cc1 : 6
CCOC(=O)CNC(=O)CCc1cccc(I)c1 : 0
CCCCCCCCCC(=O)CC(=O)Nc1ccccc1 : 3

Challenge: Recorded Activity for `CCOC(=O)CNC(=O)Cc1cccc([N+](=O)[O-])c1` , please?
Response given: 93

Challenge: Quick one: `CCCCCCCCCC(=O)CC(=O)NCCC(c1ccccc1)c1ccccc1`
Response given: 0

Challenge: Quick one: `O=C(Cc1cccc([N+](=O)[O-])c1)NC1CCCC1`
Response given: 0

Challenge: Quick one: `CCCCCCCCCC(=O)CC(=O)NCCc1ccccc1`
Response given: 0

Challenge: Quick one: `CCOC(=O)CNC(=O)CCc1ccc(Cl)cc1`
Response given: 0

Challenge: Quick one: `CCCCCCCCCC(=O)CC(=O)NCCC1=CCCCC1`
Response given: 0

Challenge: Quick one: `CCCCCCCCCC(=O)CC(=O)Nc1cc(-c2ccc(Cl)cc2)nn1C`
Response given: 0

Challenge: Quick one: `CCCCCCCCCC(=O)CC(=O)NCc1ccco1`
Response given: 0
